Experiment: Upregulation of IL-10 level in human whole blood cell preincubated for 30 mins followed by LPS stimulation and measured after 23 hrs by MSD analysis
Assay type: functional, cell-based
Reported Property: pEC50
Reminder that pEC50 means the negative base-10 logarithm of the concentration expressed in mol/L.

stdin: Which pEC50 value belongs to CO[C@@H]1C[C@H](c2ccnc(N3CC[C@@H](F)C3)n2)CN(C(=O)c2c[nH]c(C#N)c2)C1 ?
stdout: 7.30

* * *

Assay: Metabolic stability in human hepatocytes assessed as intrinsic clearance by LC-MS/MS analysis
Format: ADME, cell-based, Hepatocyte
Settings: read-out: CLH
Reported Property: CLint scaled (L/h/kg)
# value in L/h/kg; strip the unit string

stdin: Which CLint scaled value belongs to C[C@@H]1C[C@H](c2ccnc(N3CCCC3)n2)CN(C(=O)c2c[nH]c(C#N)c2)C1 ?
stdout: 5.4

Hey, just so you know, these numbers are from ChEMBL document CHEMBL6096701.
